Attribution: the nanobody polyreactivity screen of Harvey et al. (2022)

assay: yeast display, Sf9 membrane polyspecificity reagent, FACS + sequencing; frameworks hold sequencing errors
Property name: polyreactivity (PSR sort gate)

Answered cases to consult:
{"columns": ["Sequence record", "Reported"],
 "data": [
  ["QVQLVESGGGLVQAGGSLRLSCAASGSIVDWYVMGWYRQAPGKERELVAAITSTGSTYYADSVKGRFTISRDNAKNTVYLQMNSLKPEDTAVYYCATSFYVYPTYYIMDYWGQGTQVTVSS", "low polyreactivity"],
  ["QVQLVESGGGLVQAGGSLRLSCAASVSTFTFNDMGWSRQAPGKERELVAAITSGGSTTYADSVKGRFTISRDNAKNTVYLQMNSLKPEDTAVYYCAADYVYFYFYGYASWGQGTQVTVSS", "low polyreactivity"],
  ["QVQLVESGGGLVQAGGSLSLSCAASGSIFESNAMGLYRQAPGKERELVAAYADSVKGRFTISRDNAKNTVYLQMNSLKPEDTAVYYCAKSLSLYVVPLYEYWGQGTQVTVSS", "low polyreactivity"],
  ["QVQLVESGGGIVQAGGSLRLRWAASGLTSVRNAMGWYRQAPGKERELVAGISWSGGRTYYADSVKGRFTISRDNEKNTVYLQMNSLKPEDTGVYYCNKVRAYYTQEGSWGQGTQVTVSS", "high polyreactivity"],
  ["QVQRVESGGGLVQAGGSLRLSCAASGLTFNNNAMGCYRQAPGTARELVAAISRTAVRTYYADSVKGRFTISRDNAKNTVYLQMNSLKPEDTAVYYCNGVSYYGGYPVTYDYWGQGTQVTVSS", "high polyreactivity"],
  ["QVQLVESGGGLVQAGGSLRLSCAASGSTFWGYAMGWYRQAPGKERELVAAITSGGRTDYADSVKGRFTISRHNAKNTVYLQMNSRKPEDTAVYYCNAYLYYYRYHYNYWGQGTQVTVSS", "low polyreactivity"]
]}

(Q) Look up polyreactivity (PSR sort gate) for this sequence: QVQLVESGGGLVQAGGSLRLSCAASGSTFTPNAMGWYRQAPGKERELVAAIRYTGVGTYYADSVKGRFTISRDNAKNTVYLQMNSLKPEDTAVYYCNRVSRYYNYDYWGQGTQVTVSS
(A) high polyreactivity

(Q) For QVQLVESGGGLVQAGGSLRLSCAASGRTFFYNAMAWYRQAPGKERESTYYADSVKGRFTISRDNAKNTVYLQMNSLIPEDTAVSYCAAGTAYVAYEGDKGDYCGQGTQVTVSS , what is its reported polyreactivity (PSR sort gate)?
(A) low polyreactivity

(Q) For QVQLVESGGGLVQAGGSLRLSCAASGSTFGYNAMGWYRQAPGKEREFVASIDARGTSTYYADSVKGRFTISRDNAKNTVYLQMNSLKPEYTAVYYCAADAEFTWSTVRLGWIYIWYEYWGQGTQVTVSS , what is its reported polyreactivity (PSR sort gate)?
(A) low polyreactivity

(Q) Name the reported polyreactivity (PSR sort gate) value associated with the sequence QVQLVESGGGLVQAGGSLRLSCAASGLIFSQYAMGWYRQAPGKEREFVARISSSGGSTYYADSVKGRFTISRDNAKNTVYLQMNSLKPEDTAVYYCAAVGGRNIRVWFRTKYDYWGQGTQVTVSS
(A) low polyreactivity

(Q) // lookup polyreactivity (PSR sort gate) for QVQLVESGGGLVQAGGSLRLSCAASGSTFPYYARVWYRQEPGKETELVAAISSSGGSTYYADSVKGRFTISRDNAKNTVFLQMNSLKPEDPAVYYCAARRKFPYRHDYWGQGTLVTVSS
(A) high polyreactivity
